ASSAY_INFO: Chemical stability in pH 9 PBS buffer assessed as compound degradation after 1 hr by HPLC-MS/MS method
Format: physicochemical
EXPERIMENTAL_SETUP: read-out: Drug degradation
OBSERVED_PROPERTY: degraded at 1 h (%)
The response must be a number in % with no trailing unit.

QUERY: // degraded at 1 h lookup, key: `O=C(N/N=C/c1ccc(Oc2no[n+]([O-])c2S(=O)(=O)c2ccccc2)cc1)c1ccncc1`
RESULT: 50

====

ASSAY_INFO: Chemical stability in pH 7.4 PBS buffer assessed as compound degradation after 24 hrs by HPLC-MS/MS method
Format: physicochemical
EXPERIMENTAL_SETUP: read-out: Drug degradation
OBSERVED_PROPERTY: degraded at 24 h (%)
The response must be a number in % with no trailing unit.

QUERY: // degraded at 24 h lookup, key: `O=C(N/N=C/c1ccc(Oc2no[n+]([O-])c2S(=O)(=O)c2ccccc2)cc1)c1ccncc1`
RESULT: 20

====

ASSAY_INFO: in vitro
EXPERIMENTAL_SETUP: mouse, J774A.1 cells
Description: Selectivity index, ratio of IC50 for mouse J774A.1 cells to MIC90 for Mycobacterium tuberculosis H37Rv ATCC 27294
Rule: selectivity ratio below 1 gives condition met. Equal to or above 1 gives condition not met.

QUERY: Is selectivity ratio strictly under 1 for the entry `O=Cc1cccc(Oc2no[n+]([O-])c2S(=O)(=O)c2ccccc2)c1` ?
RESULT: condition not met

QUERY: Is selectivity ratio strictly under 1 for the entry `O=Cc1ccc(Oc2no[n+]([O-])c2S(=O)(=O)c2ccccc2)cc1` ?
RESULT: condition met

QUERY: Is selectivity ratio strictly under 1 for the entry `O=C(N/N=C/c1ccccc1Oc1no[n+]([O-])c1S(=O)(=O)c1ccccc1)c1ccncc1` ?
RESULT: condition not met

QUERY: Is selectivity ratio strictly under 1 for the entry `O=Cc1ccccc1Oc1no[n+]([O-])c1S(=O)(=O)c1ccccc1` ?
RESULT: condition met

QUERY: Is selectivity ratio strictly under 1 for the entry `O=C(N/N=C/c1cccc(Oc2no[n+]([O-])c2S(=O)(=O)c2ccccc2)c1)c1ccncc1` ?
RESULT: condition not met

QUERY: Is selectivity ratio strictly under 1 for the entry `O=C(N/N=C/c1ccc(Oc2no[n+]([O-])c2S(=O)(=O)c2ccccc2)cc1)c1ccncc1` ?
RESULT: condition not met

QUERY: Is selectivity ratio strictly under 1 for the entry `O=C(N/N=C/c1ccc(Oc2no[n+]([O-])c2-c2ccccc2)cc1)c1ccncc1` ?
RESULT: condition not met

====

ASSAY_INFO: Chemical stability in pH 7.4 PBS buffer assessed as compound degradation after 6 hrs by HPLC-MS/MS method
Type: physicochemical
EXPERIMENTAL_SETUP: read-out: Drug degradation
OBSERVED_PROPERTY: degraded at 6 h (%)
The response must be a number in % with no trailing unit.

QUERY: // degraded at 6 h lookup, key: `O=C(N/N=C/c1ccc(Oc2no[n+]([O-])c2S(=O)(=O)c2ccccc2)cc1)c1ccncc1`
RESULT: 15

====

ASSAY_INFO: in vitro
EXPERIMENTAL_SETUP: human, MRC5 cells
Description: Selectivity index, ratio of IC50 for human MRC5 cells to MIC90 for Mycobacterium tuberculosis H37Rv ATCC 27294
Could you please report measured selectivity ratio for the items listed next?
Write the number on its own, no unit after it.

QUERY: // selectivity ratio lookup, key: `O=C(N/N=C/c1cccc(Oc2no[n+]([O-])c2S(=O)(=O)c2ccccc2)c1)c1ccncc1`
RESULT: 14.1

QUERY: // selectivity ratio lookup, key: `O=C(N/N=C/c1ccc(Oc2no[n+]([O-])c2-c2ccccc2)cc1)c1ccncc1`
RESULT: 52.7

QUERY: // selectivity ratio lookup, key: `O=C(N/N=C/c1ccc(Oc2no[n+]([O-])c2S(=O)(=O)c2ccccc2)cc1)c1ccncc1`
RESULT: 20.3

QUERY: // selectivity ratio lookup, key: `O=C(N/N=C/c1ccccc1Oc1no[n+]([O-])c1S(=O)(=O)c1ccccc1)c1ccncc1`
RESULT: 3.78

====

Could you please report measured logP for the items listed next?
ASSAY_INFO: n-octanol-water partition coefficient, log P of the compound by HPLC method
Type: physicochemical
Write the number on its own, no unit after it.

QUERY: // logP lookup, key: `O=C(N/N=C/c1cccc(Oc2no[n+]([O-])c2S(=O)(=O)c2ccccc2)c1)c1ccncc1`
RESULT: 2.3

QUERY: // logP lookup, key: `O=C(N/N=C/c1ccc(Oc2no[n+]([O-])c2S(=O)(=O)c2ccccc2)cc1)c1ccncc1`
RESULT: 2.1

QUERY: // logP lookup, key: `O=C(N/N=C/c1ccccc1Oc1no[n+]([O-])c1S(=O)(=O)c1ccccc1)c1ccncc1`
RESULT: 2.2

QUERY: // logP lookup, key: `Cc1c(Oc2cccc(/C=N/NC(=O)c3ccncc3)c2)no[n+]1[O-]`
RESULT: 1.3

QUERY: // logP lookup, key: `Cc1c(Oc2ccc(/C=N/NC(=O)c3ccncc3)cc2)no[n+]1[O-]`
RESULT: 1.3

QUERY: // logP lookup, key: `Cc1c(Oc2ccccc2/C=N/NC(=O)c2ccncc2)no[n+]1[O-]`
RESULT: 1.4

QUERY: // logP lookup, key: `O=C(N/N=C/c1ccccc1Oc1no[n+]([O-])c1-c1ccccc1)c1ccncc1`
RESULT: 2.7

QUERY: // logP lookup, key: `O=C(N/N=C/c1ccc(Oc2no[n+]([O-])c2-c2ccccc2)cc1)c1ccncc1`
RESULT: 2.9

QUERY: // logP lookup, key: `O=C(N/N=C/c1cccc(Oc2no[n+]([O-])c2-c2ccccc2)c1)c1ccncc1`
RESULT: 2.9

====

ASSAY_INFO: Chemical stability in pH 5 PBS buffer assessed as compound degradation after 24 hrs by HPLC-MS/MS method
Type: physicochemical
EXPERIMENTAL_SETUP: read-out: Drug degradation
OBSERVED_PROPERTY: degraded at 24 h (%)
The response must be a number in % with no trailing unit.

QUERY: // degraded at 24 h lookup, key: `O=C(N/N=C/c1ccc(Oc2no[n+]([O-])c2S(=O)(=O)c2ccccc2)cc1)c1ccncc1`
RESULT: 20

====

ASSAY_INFO: Cytotoxicity against human MRC5 cells measured after 24 hrs by resazurin based fluorescence method
Assay type: toxicity, cell-based
Could you please report measured IC50 at 24 h for the items listed next?
The response must be a number in µM with no trailing unit.

QUERY: // IC50 at 24 h lookup, key: `O=C(N/N=C/c1ccc(Oc2no[n+]([O-])c2S(=O)(=O)c2ccccc2)cc1)c1ccncc1`
RESULT: 43

QUERY: // IC50 at 24 h lookup, key: `O=C(N/N=C/c1cccc(Oc2no[n+]([O-])c2S(=O)(=O)c2ccccc2)c1)c1ccncc1`
RESULT: 30.1

QUERY: // IC50 at 24 h lookup, key: `O=C(N/N=C/c1ccccc1Oc1no[n+]([O-])c1S(=O)(=O)c1ccccc1)c1ccncc1`
RESULT: 34.4

QUERY: // IC50 at 24 h lookup, key: `O=C(N/N=C/c1ccc(Oc2no[n+]([O-])c2-c2ccccc2)cc1)c1ccncc1`
RESULT: 623

====

Could you please report measured MIC90 for the items listed next?
Tested on: Mycobacterium tuberculosis
Format: functional
EXPERIMENTAL_SETUP: H37Rv
The response must be a number in µM with no trailing unit.

QUERY: // MIC90 lookup, key: `O=C(N/N=C/c1ccc(O)cc1)c1ccncc1`
RESULT: 1

QUERY: // MIC90 lookup, key: NC[C@H]1O[C@H](O[C@H]2[C@H](O)[C@@H](O[C@H]3O[C@H](CO)[C@@H](O)[C@H](N)[C@H]3O)[C@H](N)C[C@@H]2N)[C@H](O)[C@@H](O)[C@@H]1O [KANAMYCIN]
RESULT: 3.4

QUERY: // MIC90 lookup, key: N[C@@H]1CONC1=O [CYCLOSERINE]
RESULT: 245
